Target: AHR (UniProt P35869)
Construct: IC50
Sequence (P35869 1-848): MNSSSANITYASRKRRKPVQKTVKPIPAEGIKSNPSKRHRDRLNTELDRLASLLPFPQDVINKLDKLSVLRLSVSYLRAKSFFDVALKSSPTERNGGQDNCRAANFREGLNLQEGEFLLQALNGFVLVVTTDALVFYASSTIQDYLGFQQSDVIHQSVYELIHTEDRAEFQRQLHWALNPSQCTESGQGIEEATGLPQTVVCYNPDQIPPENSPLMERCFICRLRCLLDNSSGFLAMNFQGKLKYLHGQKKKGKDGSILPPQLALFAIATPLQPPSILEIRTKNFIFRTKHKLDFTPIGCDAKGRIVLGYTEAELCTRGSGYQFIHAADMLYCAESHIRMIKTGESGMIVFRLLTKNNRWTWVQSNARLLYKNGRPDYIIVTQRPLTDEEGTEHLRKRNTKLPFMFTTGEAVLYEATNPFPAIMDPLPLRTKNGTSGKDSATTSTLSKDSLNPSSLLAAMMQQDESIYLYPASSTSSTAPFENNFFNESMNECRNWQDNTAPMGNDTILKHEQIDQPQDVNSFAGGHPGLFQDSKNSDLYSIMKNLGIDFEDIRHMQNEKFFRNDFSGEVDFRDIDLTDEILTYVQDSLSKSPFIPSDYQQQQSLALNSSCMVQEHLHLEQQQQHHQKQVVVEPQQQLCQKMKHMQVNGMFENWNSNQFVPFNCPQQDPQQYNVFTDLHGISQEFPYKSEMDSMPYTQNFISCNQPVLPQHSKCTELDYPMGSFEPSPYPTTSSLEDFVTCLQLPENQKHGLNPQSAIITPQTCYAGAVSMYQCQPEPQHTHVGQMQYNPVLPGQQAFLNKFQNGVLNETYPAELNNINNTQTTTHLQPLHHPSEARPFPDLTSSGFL
Assay: DRE-Luciferase Reporter Assay (Alternate Method) (Example 1B)
Type: cell-based, murine or human
Conditions: cell line and AHR activating ligand not specified
Listing of entries alongside the reported IC50.

Compound: Cc1cnn2c(NCCc3ccc(O)nc3)cc(-c3cncc(F)c3)nc12
IC50: > 1500 nM
//
Compound: CON(C)C(=O)c1cnn2c(NC3CCc4[nH]c5ccccc5c4C3)nc(-c3cncc(F)c3)nc12 (centres unmarked)
IC50: < 500 nM
//
Compound: CC(C)c1cnn2c(NC3CCc4[nH]c5ccccc5c4C3)nc(-c3cccc(OC(F)(F)F)c3)nc12 (centres unmarked)
IC50: > 1500 nM
//
Compound: CN(C)c1cnn2c(N[C@H]3Cc4ccc(O)cc4C3)cc(-c3cncc(F)c3)nc12 [I-204b]
IC50: < 500 nM
//
Compound: CC(C)c1cnn2c(NCCc3c[nH]c4ccccc34)cc(-c3cncc(C#N)c3)nc12
IC50: < 500 nM
//
Compound: Cc1cnn2c(-c3cncc(F)c3)cc(NCCc3c[nH]c4ccccc34)nc12
IC50: > 1500 nM
//
Compound: COc1cccc2c(CCNc3cc(-c4cncc(F)c4)nc4c(C)cnn34)c[nH]c12
IC50: < 500 nM
//
Compound: CC(C)Oc1cc(NCCc2c[nH]c3cccnc23)nc(-c2cncc(F)c2)n1
IC50: 500 to 1000 nM
//
Compound: CN1CCN(c2cc(NCCc3c[nH]c4ccccc34)nc(-c3cncc(F)c3)n2)CC1
IC50: < 500 nM
//
Compound: Fc1cncc(-c2cc(NC3Cc4cc5c(cc4C3)OCO5)n3nccc3n2)c1
IC50: > 1500 nM
//
Compound: C[C@H](O)c1cnn2c(NCCc3c[nH]c4ccccc34)cc(-c3cncc(F)c3)nc12 [I-222b]
IC50: < 500 nM
//
Compound: CC(C)c1cnn2c(N[C@@H]3CCc4[nH]c5c(F)cc(F)cc5c4C3)nc(-c3cncc(F)c3)nc12 [I-139b]
IC50: < 500 nM
//
Compound: CSc1nc(N[C@@H]2CCc3[nH]c4ccccc4c3C2)n2ncc(C(C)C)c2n1
IC50: > 1500 nM
//
Compound: Fc1cncc(-c2cc(N[C@@H]3CCc4[nH]c5ccccc5c4C3)n3nccc3n2)c1
IC50: > 1500 nM
//
Compound: CC(C)c1cnn2c(N[C@H](C)Cc3ccc(O)cc3)cc(-c3cncc(F)c3)nc12 [I-97a]
IC50: > 1500 nM
//
Compound: CC(C)c1cnn2c(NC3CCc4[nH]c5ccccc5c4C3)cc(-c3ccc4c(c3)OCO4)nc12 (centres unmarked)
IC50: > 1500 nM
//
Compound: Cc1[nH]c2c(F)cc(F)cc2c1CCNc1cc(-c2cncc(F)c2)nc2c(C(C)(C)C)cnn12
IC50: < 500 nM

meta.source: patent US11358969B2
